The values you see were collected from patent US8759520B2.

- Target System: Bcl-2 (Homo sapiens)
- Sequence (P10415 whole entry, species assumed, the tested form may be a part): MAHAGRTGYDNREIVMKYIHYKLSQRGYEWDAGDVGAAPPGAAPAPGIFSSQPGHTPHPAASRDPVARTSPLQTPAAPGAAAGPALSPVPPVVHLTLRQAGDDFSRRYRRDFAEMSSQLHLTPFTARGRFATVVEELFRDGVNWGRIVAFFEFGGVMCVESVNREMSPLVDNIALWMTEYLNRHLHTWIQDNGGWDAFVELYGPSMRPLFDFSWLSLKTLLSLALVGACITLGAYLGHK
- Assay Procedure: Homogeneous HTS assay for inhibitors of the Bcl-2 : Bak (72-87) BH3 domain interaction, fluorescence polarisation (2D-FIDA)
- Format: binding
- Condition Notes: fluorescence polarisation, fluorescent labelled Bak BH3 domain derived peptide; read-out: IC50 [μM] Bcl-2
Reported Property: IC50

See these solved cases before continuing.
>>> df
                            chemical_smiles  reported_property        result
0  N=c1n(CCCOc2ccc(F)cc2)c2ccccc2n1Cc1csc(Cl)n1               IC50  11 to 100 µM
1  CC1(C)CCC(c2ccc(Cl)cc2)=C(CN2CCN(c3nc(Cn4c(=N)n(CCCOc5ccc(F)cc5)c5ccccc54)cs3)CC2)C1               IC50       < 10 µM

Which IC50 reading was recorded for the compound N=c1n(CCCOc2ccc(F)cc2)c2ccccc2n1Cc1ccc(N2CCN(Cc3cccc(Cl)c3)CC2)nc1 ?
11 to 100 µM

Which IC50 reading was recorded for the compound N=c1n(CCSc2ccccc2)c2ccccc2n1Cc1ccc(Br)cc1 ?
11 to 100 µM

----------
- Target System: Bcl-2 (Homo sapiens)
- Assay Procedure: Homogeneous HTS assay for inhibitors of the Bcl-2 : Bak (72-87) BH3 domain interaction, fluorescence polarisation (2D-FIDA)
- Format: binding
- Condition Notes: fluorescence polarisation, fluorescent labelled Bak BH3 domain derived peptide; read-out: IC50 [μM] Bcl-2
Reported Property: IC50

See these solved cases before continuing.
>>> print(df.to_string())
                                   compound         target_system        result
0  CS(=O)(=O)NC(=O)c1cccc(OCCCn2c(=N)n(Cc3cccc(Br)c3)c3ccccc32)c1  Bcl-2 (Homo sapiens)       < 10 µM
1  N=c1n(Cc2ccccc2)c2ccccc2n1CC(O)c1ccccc1 (centres unmarked)  Bcl-2 (Homo sapiens)      > 100 µM
2  N=c1n(CCCOc2ccc(F)cc2)c2ccccc2n1Cc1ccc(CNCC(=O)Nc2ccccc2)cc1  Bcl-2 (Homo sapiens)  11 to 100 µM
3  N=c1n(Cc2ccc(N3CCN(Cc4ccccc4-c4ccccc4)CC3)cc2)c2ccccc2n1CC(O)COc1ccc(F)cc1 (centres unmarked)  Bcl-2 (Homo sapiens)       < 10 µM

Which IC50 reading was recorded for the compound N=c1n(Cc2ccccc2)c2ccccc2n1Cc1cccnc1 ?
> 100 µM

Which IC50 reading was recorded for the compound N=c1n(Cc2ccc(Cl)cc2)c2ccccc2n1CC(O)COc1ccc(Cl)cc1 (centres unmarked) ?
11 to 100 µM

Which IC50 reading was recorded for the compound N=c1n(CCCOc2ccc(F)cc2)c2ccccc2n1Cc1ccc(N2CCN(Cc3ccccc3)CC2)cc1 ?
< 10 µM

Which IC50 reading was recorded for the compound N=c1n(CCCOc2cccc(C(=O)O)c2)c2ccccc2n1Cc1cccc(Br)c1 ?
11 to 100 µM

----------
- Target System: Bcl-2 (Homo sapiens)
- Assay Procedure: Homogeneous HTS assay for inhibitors of the Bcl-2 : Bak (72-87) BH3 domain interaction, fluorescence polarisation (2D-FIDA)
- Assay type: binding
- Condition Notes: fluorescence polarisation, fluorescent labelled Bak BH3 domain derived peptide; read-out: IC50 [μM] Bcl-2
Reported Property: IC50

                                   molecule        result
0  N=c1n(CCCOc2ccc(F)cc2)c2cc(C(F)(F)F)ccc2n1Cc1ccc(Br)cc1  11 to 100 µM
1  N=c1n(CCCOc2cccc(C(=O)O)c2)c2ccccc2n1Cc1ccc(N2CCN(Cc3ccccc3-c3ccccc3)CC2)cc1       < 10 µM
2  Cc1ccc(OCC(O)Cn2c(=N)n(Cc3ccccc3)c3ccccc32)cc1 (stereo not shown)  11 to 100 µM

Please find the next molecule below.
Which IC50 reading was recorded for the molecule N=c1n(CCCOc2ccc(F)cc2)c2ccccc2n1Cc1ccc(N2CCN(Cc3ccc(Cl)cc3)CC2)nc1 ?
11 to 100 µM
